# System: Danio rerio Tg(wt1b:EGFP) embryo, pronephros
# protocol.summary: fraction of imaged embryos annotated as normal kidney; higher = less nephrotoxic; extreme values may be limits of the assay
# test.parameters: 25 µM; exposure: 24-48 hpf
Where a name gives a salt, the structure may show the parent alone.
Assign class by fraction of imaged embryos annotated as normal kidney: not lower than 0.8 means Satisfied; lower than 0.8 means Not satisfied.

compound	group
CC[N+]1(C)CCCC(OC(=O)C(O)(c2ccccc2)c2ccccc2)C1 (stereo not given) [Pipenzolate bromide]	Satisfied
O=C(NCNC(=O)NC1C(=O)NC(=O)N1CO)NC1C(=O)NC(=O)N1CO (stereo not given)	Satisfied
COc1ccc(CN2CCNCC2)c(OC)c1OC [Trimetazidine dihydrochloride]	Satisfied
C=C1CC[C@@]2(O)[C@H]3Cc4ccc(O)c5c4[C@@]2(CCN3CC2CC2)[C@H]1O5 [Nalmefene hydrochloride]	Not satisfied
CN[C@@H]1[C@@H](O)[C@@H](O[C@@H]2[C@@H](O)[C@H](O[C@H]3O[C@H](CN)CC[C@H]3N)[C@@H](N)C[C@H]2N)OC[C@]1(C)O.CN[C@@H]1[C@@H](O)[C@@H](O[C@@H]2[C@@H](O)[C@H](O[C@H]3O[C@H]([C@@H](C)N)CC[C@H]3N)[C@@H](N)C[C@H]2N)OC[C@]1(C)O.CN[C@@H]1[C@@H](O)[C@@H](O[C@@H]2[C@@H](O)[C@H](O[C@H]3O[C@H]([C@@H](C)NC)CC[C@H]3N)[C@@H](N)C[C@H]2N)OC[C@]1(C)O [Gentamicine sulfate]	Not satisfied

---

# Test system: Danio rerio Tg(wt1b:EGFP) embryo, pronephros
# protocol.summary: fraction of imaged embryos annotated as normal kidney; higher = less nephrotoxic; extreme values may be limits of the assay
# test.parameters: 25 µM; exposure: 24-48 hpf
Where a name gives a salt, the structure may show the parent alone.
readout.type: fraction of imaged embryos annotated as normal kidney

compound	val
CN1C[C@H](C(=O)N[C@]2(C)O[C@@]3(O)[C@@H]4CCCN4C(=O)[C@H](Cc4ccccc4)N3C2=O)C[C@@H]2c3cccc4[nH]cc(c34)C[C@H]21 [Dihydroergotamine tartrate]	0.833
C[N+]12CCC(CC1)C(OC(=O)C(O)(c1ccccc1)c1ccccc1)C2 (stereo unspecified) [Clidinium bromide]	0.917
OC(c1ccccc1)(c1ccccc1)C1CCNCC1 [Azacyclonol]	0.833
CCC(COC(=O)c1cc(OC)c(OC)c(OC)c1)(c1ccccc1)N(C)C (stereo unspecified) [Trimebutine]	0.917
CCC(=O)O[C@H]1CC[C@H]2[C@@H]3CCC4=CC(=O)CC[C@]4(C)[C@H]3CC[C@]12C [Testosterone propionate]	0.75
O=C1CC[C@@]2(O)[C@H]3Cc4ccc(O)c5c4[C@@]2(CCN3CC2CC2)[C@H]1O5 [Naltrexone hydrochloride dihydrate]	0.833
O=c1[nH]c2ccccc2n1C1CCN(CCCC(c2ccc(F)cc2)c2ccc(F)cc2)CC1 [Pimozide]	0
C[C@]12N[C@H](Cc3ccccc31)c1ccccc12 [Dizocilpine maleate]	0.917
C[C@]12COC(=O)C[C@@H]1CC[C@@H]1[C@@H]2CC[C@@]2(C)[C@H]1CC[C@]2(C)O [Oxandrolone]	0.917
C(#CCN1CCCC1)CN1CCCC1 [Tremorine dihydrochloride]	0.75
C[C@@H]1O[C@@H](O[C@@H]2C=C3CC[C@@H]4[C@H](CC[C@]5(C)[C@@H](c6ccc(=O)oc6)CC[C@]45O)[C@@]3(C)CC2)[C@H](O)[C@H](O)[C@H]1O [Proscillaridin A]	0
COc1ccc(C(CN(C)C)C2(O)CCCCC2)cc1 (stereo unspecified) [Venlafaxine]	0.917
CN1C(=O)CCS(=O)(=O)C1c1ccc(Cl)cc1 (stereo unspecified) [Chlormezanone]	0.545
CN1C[C@H](CNC(=O)OCc2ccccc2)C[C@@H]2c3cccc4c3c(cn4C)C[C@H]21 [Metergoline]	1
CN1[C@@H]2CC[C@H]1C[C@@H](OC(=O)C(CO)c1ccccc1)C2 (stereo partly specified) [Atropine sulfate monohydrate]	1
S=C(NC1CCCCC1)N1CCC(c2cnc[nH]2)CC1 [Thioperamide maleate]	0.917
COc1ccc(C(=O)N2CCCC2=O)cc1 [Aniracetam]	0.75
CC(N)C(O)c1ccccc1 (stereo unspecified) [Phenylpropanolamine hydrochloride]	0.917
Oc1ccc2c3c1O[C@H]1[C@@H](O)CC[C@@]4(O)[C@@H](C2)N(CC2CCC2)CC[C@]314 [Nalbuphine hydrochloride]	0.75
c1ccc2c(c1)OCC(C1=NCCN1)O2 (stereo unspecified) [Idazoxan hydrochloride]	0.833
C[C@@H]1CC[C@H]2[C@@H](C)C(=O)O[C@@H]3O[C@@]4(C)CC[C@@H]1[C@]32OO4 [Artemisinin]	1
C[N+]1(C)CCOC(O)(c2ccc(-c3ccc(C4(O)C[N+](C)(C)CCO4)cc3)cc2)C1 (stereo unspecified) [Hemicholinium bromide]	0.917
O=c1[nH]c2ccccc2n1CCCN1CCC(n2c(=O)[nH]c3cc(Cl)ccc32)CC1 [Domperidone]	0.818
C[C@]12CC[C@H](O)C[C@@H]1CC[C@@H]1[C@@H]2CC[C@]2(C)C(=O)CC[C@@H]12 [Epiandrosterone]	0.417
O=C(CCCN1CCC(n2c(=O)[nH]c3ccccc32)CC1)c1ccc(F)cc1 [Benperidol]	0.917
C=CC[C@]1(O)CC[C@H]2[C@@H]3CCC4=CC(=O)CCC4=C3C=C[C@@]21C [Altrenogest]	0.333
CC(C)(C)NCC(O)c1cc(Cl)c(N)c(Cl)c1 (stereo unspecified) [Clenbuterol hydrochloride]	0.75
CCC(=O)O[C@@](Cc1ccccc1)(c1ccccc1)[C@@H](C)CN(C)C [Levopropoxyphene napsylate]	0.909
CCN[C@@H](C)Cc1cccc(C(F)(F)F)c1 [Dexfenfluramine hydrochloride]	0.917
CC(=O)O[C@H]1C[C@@H]2CC[C@@H]3[C@H](CC[C@@]4(C)[C@H]3C[C@H]([N+]3(C)CCCCC3)[C@@H]4OC(C)=O)[C@@]2(C)C[C@@H]1[N+]1(C)CCCCC1 [Pancuronium bromide]	1
CC(CCc1ccccc1)NC(C)C(O)c1ccc(O)cc1 (stereo unspecified) [Nylidrin]	0.917
